experiment: qHTS assay to identify small molecule agonists or antagonists of the thyroid stimulating hormone receptor (TSHR) signaling pathway - wild type cell line counter screen (AID 1259384); conditions: HEK293 wild type, cAMP HTRF counter-screen, stronger effect = higher value; series mostly up to 92.4 µM; also: % is scaled to controls: 0 for no effect and ±100 for the full control effect
Results filed as inconclusive are left out. Calls of active or inactive are those of the source. Calls follow the shape of the full dose curve.
measured_property: cAMP activity change

These recorded examples may help you get a feel for the data.
CCOB(OCC)OCC: inactive
CCCCCCCCCCCCCCNCCO: inactive
CCCCCCS: inactive
CCN1CCN(c2cc(-c3ccc(F)cc3)c3c(n2)CCCCCC3)CC1: 2.43% [at 18.9 µM] (inactive)
CC(C)=CC1CC(C)CCO1 (stereo unspecified): inactive

Next item in the queue.
QUERY: Which cAMP activity change value is on record for `O=C1Nc2ccc(Cl)cc2[C@@](C#CC2CC2)(C(F)(F)F)O1` ?
RESULT: inactive
